MHC: recorded values
# measurement-conditions: erythrocyte
Where a SMILES comes first, the peptide text is derived from it. The star is where a group is joined. OBn = c1ccc(CO*)cc1

molecule: N=C(N)NCCC[C@H](NC(=O)[C@@H](N)Cc1c[nH]c2ccccc12)C(=O)N[C@@H](Cc1c[nH]c2ccccc12)C(N)=O (H-Trp-Arg-Trp-NH2)
MHC: > 500 µg/mL

Inquiry: Entry N=C(N)NCCC[C@H](NC(=O)[C@@H](N)Cc1c[nH]c2ccccc12)C(=O)N[C@@H](Cc1c[nH]c2ccccc12)C(=O)OCc1ccccc1 (H-Trp-Arg-Trp-OBn) needs its MHC filled in; supply it.
Reply text: > 500 µg/mL

Inquiry: Entry CC[C@H](C)[C@H](NC(=O)[C@H](CCCCN)NC(=O)[C@@H](NC(=O)[C@H](CCC(N)=O)NC(=O)[C@@H](N)CCCNC(=N)N)[C@@H](C)CC)C(=O)N[C@@H](Cc1c[nH]c2ccccc12)C(=O)N[C@@H](Cc1ccccc1)C(=O)N[C@@H](CCC(N)=O)C(=O)N[C@@H](CC(N)=O)C(=O)N[C@@H](CCCNC(=N)N)C(=O)N[C@@H](CCCNC(=N)N)C(=O)N[C@@H](CCSC)C(=O)N[C@@H](CCCCN)C(=O)N[C@@H](Cc1c[nH]c2ccccc12)C(=O)N[C@@H](CCCCN)C(=O)N[C@@H](CCCCN)C(N)=O needs its MHC filled in; supply it.
Reply text: > 200 µM

Inquiry: Entry CSCC[C@H](NC(=O)[C@@H](NC(=O)[C@H](CCCNC(=N)N)NC(=O)[C@H](Cc1ccccc1)NC(=O)[C@H](C)NC(=O)[C@H](C)NC(=O)[C@H](CCCCN)NC(=O)[C@H](CCCNC(=N)N)NC(=O)[C@H](Cc1ccccc1)NC(=O)[C@H](C)NC(=O)[C@@H]1CCCN1C(=O)[C@@H](N)CCCNC(=N)N)C(C)C)C(=O)N[C@@H](CCCNC(=N)N)C(=O)N[C@@H](C)C(=O)N[C@@H](CS)C(=O)N[C@H](C(N)=O)C(C)C (H-RPAFRKAAFRVMRACV-NH2) needs its MHC filled in; supply it.
Reply text: > 1300 µM
